Biological target: Mitogen-activated protein kinase kinase kinase kinase 1 (Homo sapiens, UniProt Q92918)
Sequence (Q92918 whole entry, the tested form may be a part): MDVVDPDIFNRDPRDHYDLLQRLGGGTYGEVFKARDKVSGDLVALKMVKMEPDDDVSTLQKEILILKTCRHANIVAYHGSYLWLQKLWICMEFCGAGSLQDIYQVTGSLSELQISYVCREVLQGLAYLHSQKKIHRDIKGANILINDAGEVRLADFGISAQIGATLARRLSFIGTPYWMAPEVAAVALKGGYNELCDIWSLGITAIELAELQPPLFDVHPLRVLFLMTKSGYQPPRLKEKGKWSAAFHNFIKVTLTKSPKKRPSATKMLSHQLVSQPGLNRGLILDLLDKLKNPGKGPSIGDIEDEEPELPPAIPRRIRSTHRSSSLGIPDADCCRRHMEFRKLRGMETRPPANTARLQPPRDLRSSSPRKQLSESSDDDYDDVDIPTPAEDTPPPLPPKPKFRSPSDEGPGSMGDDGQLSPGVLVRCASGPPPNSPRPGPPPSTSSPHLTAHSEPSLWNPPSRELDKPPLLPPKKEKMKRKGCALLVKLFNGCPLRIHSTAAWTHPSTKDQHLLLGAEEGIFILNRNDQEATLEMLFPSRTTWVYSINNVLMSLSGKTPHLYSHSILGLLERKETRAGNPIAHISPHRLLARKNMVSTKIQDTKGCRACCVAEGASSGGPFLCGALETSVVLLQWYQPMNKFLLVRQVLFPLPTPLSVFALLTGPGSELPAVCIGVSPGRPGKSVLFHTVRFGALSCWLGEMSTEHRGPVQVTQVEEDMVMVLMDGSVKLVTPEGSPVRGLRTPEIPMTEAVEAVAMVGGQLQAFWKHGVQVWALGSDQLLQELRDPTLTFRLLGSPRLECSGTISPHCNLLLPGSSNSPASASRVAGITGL
Assay: Inhibition of N-terminal DYKDDDDK recombinant human HPK1 (1 to 346 residues) expressed in Sf21 insect cells preincubated for 10 min followed by fluorescein PKC and ATP addition and measured after 90 min by Envision2104 Multilabel Reader analysis
pIC50: −log10 of the molar value.
measure name: pIC50

> print(dat)
                                   molecule                               measured.on  measure.name  value
1  CN(C)Cc1nc(Nc2ncc(-c3cnc4cc(F)ccn34)c3cn[nH]c(=O)c23)ccc1C1CCOCC1  Mitogen-activated protein kinase kinase kinase kinase 1 (Homo sapiens, UniProt Q92918)         pIC50   6.27

A: O=c1[nH]ncc2c(-c3cnc4cc(F)ccn34)ccc(Nc3ccc(C4CCOCC4)c(CN4CC[C@@H](F)C4)n3)c12
B: O=c1[nH]ccc2c(-c3cnc4cc(F)ccn34)ccc(Nc3ccc(C4CCOCC4)c(CN4CC[C@H](F)C4)n3)c12
C: CN(C)Cc1nc(Nc2ccc(-c3cnc4cc(F)ccn34)c3cc[nH]c(=O)c23)ccc1C1CCOCC1
D: O=c1[nH]ncc2c(-c3cnc4cc(F)ccn34)ccc(Nc3ccc(C4CCOCC4)c(CN4CC[C@H](F)C4)n3)c12
# input rank_up(items): orders items by reported pIC50 in ascending numerical order. When ranking, write the labels in the order the request describes.
# output A, C, B, D
(A: 7.47, C: 7.70, B: 7.98, D: 8.27)
